- target-or-test-system: T1, cTnI quality control product recombinant protein (human, UniProt P19429 1-210, limits assumed)
- T1 construct: the assay paragraphs only say cTnI; also called cardiac troponin I; cTnI antigen
- T1 sequence (P19429 whole entry): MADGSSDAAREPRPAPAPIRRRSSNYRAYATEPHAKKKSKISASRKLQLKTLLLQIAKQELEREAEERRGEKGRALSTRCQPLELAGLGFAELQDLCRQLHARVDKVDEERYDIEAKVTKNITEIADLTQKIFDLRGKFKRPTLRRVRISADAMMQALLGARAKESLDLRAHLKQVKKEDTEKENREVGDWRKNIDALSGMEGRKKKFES
- assay-method-text: AMC biosensor, antibody on sensor
Here the recorded kon is given for each entry.
# value in M⁻¹ s⁻¹; strip the unit string

Worked examples follow.
[
  {
    "binder": "Mutation 1-24 (antibody, V domains shown) VH: QVQLQQSGTELAKPGASVKFSCKASGYTFSTYWMYWIKQRPGQGLEWIGYINPSTGHTDYNQKFKDKATLTADKSSSTAYMQLNSLTSEDSAVYYCARRYFGPFGMDYWGQGTSVTVSS VL: EIFLTQSPAIMSASPGEKVTMTCSASSTVSYVHWYQQKSGTSPKRWLYDTSKIASGIPVRFSGSGSGTSYSLTISSMEAEDAATYYCQQWSSNPYTFGGGTKLEIKR",
    "kon / M⁻¹ s⁻¹": 18600
  },
  {
    "binder": "Mutation 1-13 (antibody, V domains shown) VH: QVQLQQSGTELAKPGASVKFSCKASGYTFSSYWMYWIKQRPGQGLEWIGYLNPSSGHTDYNQRFKDKATLTADKSSSTAYMQLNSLTSEDSAVYYCARRYYGPFGMDYWGQGTSVTVSS VL: EIFLTQSPAIMSASPGEKVTMTCSASSSVSYVHWYQQKSGTSPKRWIYDTSKIASGIPVRFSGSGSGTSYSLTISSMEAEDAATYYCQQWSTQPYTFGGGTKLEIKR",
    "kon / M⁻¹ s⁻¹": 17700
  },
  {
    "binder": "Mutation 1-35 (antibody, V domains shown) VH: QVQLQQSGTELAKPGASVKFSCKASGYTFTTYWMYWIKQRPGQGLEWIGYINPSTGHTDYNQKFKDKATLTADKSSSTAYMQLNSLTSEDSAVYYCARRYWGPFGMDYWGQGTSVTVSS VL: EIFLTQSPAIMSASPGEKVTMTCSASSSVSYVHWYQQKSGTSPKRWIYDTSKLASGIPVRFSGSGSGTSYSLTISSMEAEDAATYYCQQWSTQPYTFGGGTKLEIKR",
    "kon / M⁻¹ s⁻¹": 18900
  },
  {
    "binder": "WT 1-4 (antibody, V domains shown) VH: QVQLQQSGTELAKPGASVKFSCKASDYTFSTYWMYWIKQRPGQGLEWIGYINPSSGHTEYNQRFKDKATLTADKSSSTAYMQLNSLTSEDSAVYYCARKYYGPFAMDYWGQGTSVTVSS VL: EIFLTQSPAIMSASPGEKVTMTCSASTTVSYAHWYQQKSGTSPKRWLYDSSKIASGIPVRFSGSGSGTSYSLTISSMEAEDAATYYCQNWSTNPYTFGGGTKLEIKR",
    "kon / M⁻¹ s⁻¹": 29000
  },
  {
    "binder": "Mutation 1-39 (antibody, V domains shown) VH: QVQLQQSGTELAKPGASVKFSCKASGYTFTTYWMYWIKQRPGQGLEWIGYLNPSTGHTDYNQKFKDKATLTADKSSSTAYMQLNSLTSEDSAVYYCARKYWGPFGMDYWGQGTSVTVSS VL: EIFLTQSPAIMSASPGEKVTMTCSASTSVSYVHWYQQKSGTSPKRWIYDTSKLASGIPVRFSGSGSGTSYSLTISSMEAEDAATYYCQQWSTQPYTFGGGTKLEIKR",
    "kon / M⁻¹ s⁻¹": 27000
  }
]

Endpoint output: kon of Mutation 1-10 (antibody, V domains shown) VH: QVQLQQSGTELAKPGASVKFSCKASGYTFTSYWMYWIKQRPGQGLEWIGYINPSTGHTDYNQRFKDKATLTADKSSSTAYMQLNSLTSEDSAVYYCARKYYGPFGMDYWGQGTSVTVSS VL: EIFLTQSPAIMSASPGEKVTMTCSASSTVSYVHWYQQKSGTSPKRWLYDTSKLASGIPVRFSGSGSGTSYSLTISSMEAEDAATYYCQQWSTQPYTFGGGTKLEIKR . Value?
37000

Recorded kon for WT 1-5 (antibody, V domains shown) VH: QVQLQQSGTELAKPGASVKFSCKASDYTFSSYWMYWIKQRPGQGLEWIGYLNPSTGHTEYNQKFKDKATLTADKSSSTAYMQLNSLTSEDSAVYYCARKYWGPFAMDYWGQGTSVTVSS VL: EIFLTQSPAIMSASPGEKVTMTCSASSSVSYAHWYQQKSGTSPKRWIYDSSKIASGIPVRFSGSGSGTSYSLTISSMEAEDAATYYCQNWSTNPYTFGGGTKLEIKR , please?
35000

Which kon reading was recorded for the binder Mutation 1-27 (antibody, V domains shown) VH: QVQLQQSGTELAKPGASVKFSCKASGYTFTSYWMYWIKQRPGQGLEWIGYLNPSSGHTDYNQKFKDKATLTADKSSSTAYMQLNSLTSEDSAVYYCARKYFGPFGMDYWGQGTSVTVSS VL: EIFLTQSPAIMSASPGEKVTMTCSASTSVSYVHWYQQKSGTSPKRWIYDTSKLASGIPVRFSGSGSGTSYSLTISSMEAEDAATYYCQQWSSNPYTFGGGTKLEIKR ?
39500

Tell me the measured kon of Mutation 1-29 (antibody, V domains shown) VH: QVQLQQSGTELAKPGASVKFSCKASGYTFSSYWMYWIKQRPGQGLEWIGYINPSSGHTDYNQKFKDKATLTADKSSSTAYMQLNSLTSEDSAVYYCARKYWGPFGMDYWGQGTSVTVSS VL: EIFLTQSPAIMSASPGEKVTMTCSASSSVSYVHWYQQKSGTSPKRWIYDTSKIASGIPVRFSGSGSGTSYSLTISSMEAEDAATYYCQQWSSNPYTFGGGTKLEIKR , please.
15800

Looking for the measured kon of Mutation 1-31 (antibody, V domains shown) VH: QVQLQQSGTELAKPGASVKFSCKASGYTFTTYWMYWIKQRPGQGLEWIGYINPSTGHTDYNQKFKDKATLTADKSSSTAYMQLNSLTSEDSAVYYCARRYYGPFGMDYWGQGTSVTVSS VL: EIFLTQSPAIMSASPGEKVTMTCSASSSVSYVHWYQQKSGTSPKRWIYDTSKLASGIPVRFSGSGSGTSYSLTISSMEAEDAATYYCQQWSSNPYTFGGGTKLEIKR , can you help?
24000
